Listed next: entries and their corresponding viability at 72 h, 1 µM.
Assay: Cytotoxicity, XTT test, HepG2
Assay type: cell-based
Conditions: human; HepG2, 1 µM, % viability vs. untreated cells; read-out: Cell line viability after 72 h

- compound: "CCCCCN(C#N)N(C)C(=O)[C@H](Cc1ccccc1)NC(=O)OCc1ccccc1"
  viability at 72 h, 1 µM: "85%"
- compound: "CC(C)C[C@H](NC(=O)c1ccc(-c2noc(-c3cccs3)n2)cc1)C(=O)N(C)N(C)C#N"
  viability at 72 h, 1 µM: "91%"
- compound: "CN(C#N)N(C)C(=O)[C@H](CC1CCCCC1)NC(=O)OCc1ccccc1 [Compound 11a]"
  viability at 72 h, 1 µM: "89%"
- compound: "CC(C)CC(NC(=O)NCc1ccccc1)C(=O)N(C)N(C)C#N (centres unmarked)"
  viability at 72 h, 1 µM: "82%"
- compound: "CN(C(=O)[C@H](Cc1ccccc1)NC(=O)OCc1ccccc1)N(C#N)CCc1ccccc1"
  viability at 72 h, 1 µM: "102%"
